Data provenance is patent US20190322730A1.

system-tested: C3a (human, UniProt P01024 672-748)
Sequence (P01024 672-748 limits assumed): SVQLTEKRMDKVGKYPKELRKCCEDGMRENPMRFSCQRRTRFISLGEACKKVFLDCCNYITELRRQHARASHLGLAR
test: binding screen of Example 5; method and unit not stated
observable: binding relative to negative control mIgG2
In your answer, state the number alone without any accompanying words.

Please give the measured binding relative to negative control mIgG2 for this binder: antibody 62F2 (antibody, V domains shown, Mouse hybridoma antibody) VH: DVQLQESGPDLVKPSQSLSLTCTVTGYSITSGYSLHWIRQFPGNKLEWMGYIHYSGSTNYNPSLKSRISITRDTSKNQFFLKLNSVTSEDTATYHCARAWDYLDYWGQGTTLTVSS VL: DIQMTQSPASLSASVGETVTITCRASENIYSQLAWYQQKQGKSPQLLVYDAKTLAEGVPSRFSGSGSDTQFSLKIISLQPEDFGRYYCHHHFGILYTFGGGTKLEMK
-0.04

Next up:
I would be grateful if you could share the reported binding relative to negative control mIgG2 for antibody 38F5 (antibody, V domains shown, Mouse hybridoma antibody) VH: EVMLVESGGALVKPGGSLKLSCTASGFTFSNYAMSWVRQTPEKRLEWVAQTISSGGRYTYYPDSVKGRFTISRDNARNTLYLQMSSLRSEDTAMYYCVRRYYGNSYWYFDVWGAGTTVTVSS VL: DIVMTQSPSSLSVSAGEKVTMNCKSSQSLLNSGNQKHYLTWYQQKPGQPPKLLIYGASTRGSGVPDRFTGSGSGTDFTLTISSVQAEDLAVYYCQNDHSYPYTFGGGTKLEIK .
0
